- measurement_protocol: Half-life in ICR mouse at 10 mg/kg, po measured by LC-MS/MS analysis
- Assay type: ADME, organism-based
- condition_label: in vivo
Reported half-life by item:
quantity_kind: half-life

{"columns": ["compound", "value"],
 "data": [
  ["CC(C)(c1ccc(OCC2CCN(C(=O)CCCNc3ccc4c(c3)C(=O)N(C3CCC(=O)NC3=O)C4=O)CC2)cc1)c1ccc(OC[C@H](O)CCl)cc1 (stereo partly drawn)", "1.8 h"],
  ["CC(C)(c1ccc(OCC2CCN(CC3CCN(c4ccc5c(c4)C(=O)N(C4CCC(=O)NC4=O)C5=O)CC3)CC2)cc1)c1ccc(OC[C@H](O)CCl)cc1 (stereo partly drawn)", "7.9 h"],
  ["CC(C)(c1ccc(OCC2CCN(CC3CN(C4CCN(c5cccc6c5C(=O)N(C5CCC(=O)NC5=O)C6=O)CC4)C3)CC2)cc1)c1ccc(OC[C@H](O)CCl)cc1 (stereo partly drawn)", "20.5 h"]
]}

###

- measurement_protocol: Metabolic stability in mouse liver microsomes assessed as parent compound remaining at 2 uM preincubated for 10 mins in the presence of NADPH followed by compound addition and measured after 60 mins by LC-MS/MS analysis
- Format: ADME, Microsome
- condition_label: read-out: Stability

{"columns": ["compound", "remaining at 1 h, 2 µM"],
 "data": [
  ["CC(C)(c1ccc(OCC2CCN(CC3CCN(c4ccc5c(c4)C(=O)N(C4CCC(=O)NC4=O)C5=O)CC3)CC2)cc1)c1ccc(OC[C@H](O)CCl)cc1 (stereo partly specified)", "78.2%"]
]}

###

- subject_of_test: von Hippel-Lindau disease tumor suppressor/Androgen receptor (Homo sapiens, UniProt P10275+P40337)
- Sequence (P10275 whole entry, looked up, change not shown): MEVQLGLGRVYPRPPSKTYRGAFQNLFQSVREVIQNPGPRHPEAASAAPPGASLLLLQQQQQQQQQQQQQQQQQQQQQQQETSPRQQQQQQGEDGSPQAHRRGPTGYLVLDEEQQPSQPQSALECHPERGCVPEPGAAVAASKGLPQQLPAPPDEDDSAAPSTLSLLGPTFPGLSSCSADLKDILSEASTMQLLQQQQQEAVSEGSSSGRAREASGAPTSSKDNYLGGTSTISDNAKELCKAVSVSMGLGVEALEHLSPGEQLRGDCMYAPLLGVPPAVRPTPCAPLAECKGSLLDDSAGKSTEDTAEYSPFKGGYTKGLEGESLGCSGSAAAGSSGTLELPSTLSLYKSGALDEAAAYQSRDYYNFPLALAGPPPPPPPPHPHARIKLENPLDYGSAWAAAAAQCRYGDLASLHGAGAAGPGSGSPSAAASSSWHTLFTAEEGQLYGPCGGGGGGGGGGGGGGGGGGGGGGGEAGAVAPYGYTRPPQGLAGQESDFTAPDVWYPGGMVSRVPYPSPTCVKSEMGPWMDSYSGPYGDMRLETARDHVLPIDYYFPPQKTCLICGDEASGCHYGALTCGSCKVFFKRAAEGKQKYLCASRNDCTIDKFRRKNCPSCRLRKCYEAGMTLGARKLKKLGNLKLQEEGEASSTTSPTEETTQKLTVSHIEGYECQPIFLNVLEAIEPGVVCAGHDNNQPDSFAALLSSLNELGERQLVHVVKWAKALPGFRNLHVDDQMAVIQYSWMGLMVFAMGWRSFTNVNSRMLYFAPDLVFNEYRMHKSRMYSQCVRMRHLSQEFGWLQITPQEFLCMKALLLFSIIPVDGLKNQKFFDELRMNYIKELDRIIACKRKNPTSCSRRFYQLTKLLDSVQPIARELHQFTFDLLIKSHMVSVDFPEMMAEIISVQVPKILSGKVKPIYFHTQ
- Sequence (P40337 whole entry, looked up, change not shown): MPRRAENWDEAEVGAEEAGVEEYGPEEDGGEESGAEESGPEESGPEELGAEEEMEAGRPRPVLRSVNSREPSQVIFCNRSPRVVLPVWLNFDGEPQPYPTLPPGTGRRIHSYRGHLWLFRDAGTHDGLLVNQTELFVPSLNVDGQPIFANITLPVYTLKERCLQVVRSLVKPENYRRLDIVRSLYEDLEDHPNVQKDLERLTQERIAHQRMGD
- measurement_protocol: PROTAC activity at VHL/AR-V7 in human 22Rv1 cells assessed as induction of AR degradation by Immunoblot analysis

{"columns": ["mol_smiles", "readout_unit", "EC50"],
 "data": [
  ["Cc1ncsc1-c1ccc([C@H](C)NC(=O)[C@@H]2C[C@@H](O)CN2C(=O)[C@@H](NC(=O)CCCCNC(=O)COc2c(-c3csc(N4CCOCC4)n3)ccc(F)c2F)C(C)(C)C)cc1", "nM", 370]
]}
